Molecular target: Schizosaccharomyces pombe NatA (SpNaa15 full length + SpNaa10 full length heterodimer) (Schizosaccharomyces pombe)
measured attribute: Km of the peptide substrate, PDH-coupled acetylation assay, 100 μM Ac-CoA, 30°C (mM)

a. SASEAGVR [peptide SASEAGVR]
b. SASEAGV [peptide SASEAGV]
c. SASEAGVRWGRPVGRRRRP [reference peptide … (canonical NatA substrate)]
d. SASEAGVAEQVKKLSVNDS [natural 19-amino acid N-terminal sequence of yeast Ths1p, …]
Prompt: Order the 4 binders from highest to lowest Km of the peptide substrate, PDH-coupled acetylation assay, 100 μM Ac-CoA, 30°C. Order the labels as requested and list them.
Completion: b, a, d, c
